target: porcine PDHc E1 (Sus scrofa, UniProt F1SGH5+P29804); experiment: Porcine PDHc-E1 inhibition, DCPIP reduction assay; format: biochemical; details: read-out: Inhibition (%) of PDH E1 at [TPP] = 100 μM
Sequence (P29804 30-389): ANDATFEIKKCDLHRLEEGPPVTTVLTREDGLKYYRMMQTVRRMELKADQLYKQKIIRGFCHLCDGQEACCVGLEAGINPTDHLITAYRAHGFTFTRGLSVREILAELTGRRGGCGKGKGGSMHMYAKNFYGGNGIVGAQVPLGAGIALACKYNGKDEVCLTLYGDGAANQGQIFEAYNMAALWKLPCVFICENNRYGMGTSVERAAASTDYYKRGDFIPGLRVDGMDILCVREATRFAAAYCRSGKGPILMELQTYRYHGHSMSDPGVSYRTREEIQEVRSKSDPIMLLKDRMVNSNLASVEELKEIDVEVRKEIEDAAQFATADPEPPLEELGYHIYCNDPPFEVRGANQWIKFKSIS
Sequence (F1SGH5 32-360): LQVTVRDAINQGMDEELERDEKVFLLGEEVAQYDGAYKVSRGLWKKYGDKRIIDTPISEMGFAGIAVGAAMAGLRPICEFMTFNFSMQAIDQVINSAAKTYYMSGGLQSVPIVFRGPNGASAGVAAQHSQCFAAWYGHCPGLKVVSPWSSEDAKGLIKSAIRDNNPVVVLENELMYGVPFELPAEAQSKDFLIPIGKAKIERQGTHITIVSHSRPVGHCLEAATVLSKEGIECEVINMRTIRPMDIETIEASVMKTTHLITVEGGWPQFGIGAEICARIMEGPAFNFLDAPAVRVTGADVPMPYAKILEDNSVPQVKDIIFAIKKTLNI
recorded metric: inhibition at 100 µM (%)
Only the number, expressed in %, is required.

Observe how each entry below is paired with its result.
> print(dat)
                                   compound       recorded.metric  observed
1  Cc1ncc(Cn2cc(CCOc3ccc([N+](=O)[O-])cc3)nn2)c(N)n1 [Compound 13a]  inhibition at 100 µM        53
2  Cc1ncc(Cn2cc(CCOC(=O)c3ccccc3)nn2)c(N)n1 [Compound 12a]  inhibition at 100 µM        44
3  Cc1ncc(Cn2cc(CCOC(=O)c3ccccc3Cl)nn2)c(N)n1 [Compound 12d]  inhibition at 100 µM        38
4  Cc1ncc(Cn2cc(CCO)nn2)c(N)n1 [Compound 6, reference compound]  inhibition at 100 µM        35
5  Cc1ncc(Cn2cc(CCOC(=O)c3cccc(Cl)c3)nn2)c(N)n1 [Compound 12c]  inhibition at 100 µM        48

Problem: Recorded inhibition at 100 µM of Cc1ncc(Cn2cc(CCOC(=O)c3ccc([N+](=O)[O-])cc3)nn2)c(N)n1 [Compound 12f] , please.
Result: 40

Problem: Recorded inhibition at 100 µM of Cc1ncc(Cn2cc(CCOC(=O)c3ccc(Cl)cc3)nn2)c(N)n1 [Compound 12b] , please.
Result: 56

Problem: Recorded inhibition at 100 µM of Cc1ncc(Cn2cc(CCOC(=O)c3ccc(Br)cc3)nn2)c(N)n1 [Compound 12e] , please.
Result: 46

Problem: Recorded inhibition at 100 µM of Cc1ncc(Cn2cc(CCOC(=O)c3cccc([N+](=O)[O-])c3)nn2)c(N)n1 [Compound 12g] , please.
Result: 38
